- Test system: SK-OV-3 ovarian
- Measurement Protocol: NCI tumour cell line growth inhibition, 48 h
Measured Quantity: TGI

Example entries and their recorded answers appear below.
[
  {
    "Compound": "CCN(CC)CCCNc1ccc([N+](=O)[O-])c2nc3ccc(OC)cc3c(N)c12",
    "Test System": "SK-OV-3 ovarian",
    "TGI": "> 5.48 µM"
  },
  {
    "Compound": "O=C(Cc1ccc([N+](=O)[O-])c([N+](=O)[O-])c1CC(=O)C(=O)Nc1cc(Cl)ccc1Cl)C(=O)Nc1cc(Cl)ccc1Cl",
    "Test System": "SK-OV-3 ovarian",
    "TGI": "> 100 µM"
  },
  {
    "Compound": "Cc1ccc(/C=C/c2c(C(=O)/C=C/c3ccc(Cl)cc3)c(C)nc3ccccc23)cc1",
    "Test System": "SK-OV-3 ovarian",
    "TGI": "15.7 µM"
  },
  {
    "Compound": "COc1ccc(Cl)cc1Nc1nc(C(F)(F)F)ccc1C(=O)N/N=C/c1cccnc1",
    "Test System": "SK-OV-3 ovarian",
    "TGI": "> 100 µM"
  }
]

### Prompt Dear colleague, please send me the reported TGI for CCCCN=C(N)c1ccc(N2CCCN(c3ccc(C(N)=NCCCC)cc3)CC2)cc1 when you can.
### Response > 100 µM

### Prompt Dear colleague, please send me the reported TGI for COc1cc(C2c3[nH]c4ccccc4c3[C@@H](Nc3ccc(C#N)cc3)[C@H]3COC(=O)N23)cc(OC)c1O (stereo not given in full) when you can.
### Response 1.04 µM

### Prompt Dear colleague, please send me the reported TGI for CCCCCCCCCCSC(=O)NC when you can.
### Response > 100 µM

### Prompt Dear colleague, please send me the reported TGI for CC(=O)Nc1ccc(/C=C2\N=C(c3ccccc3)OC2=O)cc1 when you can.
### Response > 100 µM

### Prompt Dear colleague, please send me the reported TGI for CCO/C(O)=C(/C(=N)N1CCCC1)C(=O)Nc1cccc(Cl)c1 when you can.
### Response > 100 µM

### Prompt Dear colleague, please send me the reported TGI for CCCCCCSCC/C(C)=N\OC when you can.
### Response > 100 µM

---

- Test system: SNB-19 CNS
- Measurement Protocol: NCI tumour cell line growth inhibition, 48 h
Measured Quantity: TGI

Example entries and their recorded answers appear below.
[
  {
    "Compound": "NC1=NC(=O)/C(=C/c2ccc3ncccc3c2)S1",
    "TGI": "> 25 µM"
  },
  {
    "Compound": "O=C1C2c3[nH]c4ccccc4c3C3CCCCCC3C2C(=O)N1c1ccccc1 (stereo unspecified)",
    "TGI": "> 74.1 µM"
  },
  {
    "Compound": "C=C1C(=O)O[C@H]2C/C(C)=C/CC[C@]3(C)CCC[C@](C)(CC[C@@H]12)O3",
    "TGI": "> 50 µM"
  },
  {
    "Compound": "CCN(CC)CCN1C(=O)C2C3C(=O)CC(C)(CC3C)C2C1=O (stereo unspecified)",
    "TGI": "> 100 µM"
  },
  {
    "Compound": "O=Cc1c(-c2ccccc2)[nH]c2ccccc2c1=O",
    "TGI": "> 100 µM"
  },
  {
    "Compound": "Cc1ccc(NC(=O)Nc2c(Cl)cccc2Cl)cn1",
    "TGI": "> 100 µM"
  }
]

### Prompt # return TGI for COc1cc(/C=C/C(=O)N2CCC=CC2=O)cc(OC)c1OC , test system: SNB-19 CNS
### Response 20.6 µM

### Prompt # return TGI for O=C(O)c1c(Cl)c(Cl)c(Cl)c(Cl)c1C(=O)Nc1ccc2cn[nH]c2c1 , test system: SNB-19 CNS
### Response > 100 µM

### Prompt # return TGI for CCOC(=O)c1nc2ccccc2nc1Oc1ccc(C#N)cc1 , test system: SNB-19 CNS
### Response > 100 µM

### Prompt # return TGI for Cc1n[n+]([O-])c(C)cc1[N+](=O)[O-] , test system: SNB-19 CNS
### Response > 100 µM

### Prompt # return TGI for C[N+]1(CCC(=O)c2ccccc2)CCC2CCC(C2)C1 (stereo unspecified) , test system: SNB-19 CNS
### Response > 100 µM

---

Listed here are molecules together with their documented TGI.
- System: MALME-3M melanoma
- Measurement Protocol: NCI tumour cell line growth inhibition, 48 h

Example entries and their recorded answers appear below.
[
  {
    "Molecule": "CCOC(=O)N(C)C(=C(F)F)C(F)(F)F",
    "Test System": "MALME-3M melanoma",
    "TGI": "33.5 µM"
  },
  {
    "Molecule": "O=C(CC(c1ccccc1)C1C(=O)NC(=S)NC1=O)c1ccc([N+](=O)[O-])cc1 (configuration not stated)",
    "Test System": "MALME-3M melanoma",
    "TGI": "> 100 µM"
  },
  {
    "Molecule": "CCCCCCCCCC(CCCC(O)CC(=O)O)OC1OC(COC2OC(C)C(OC(C)=O)C(O)C2O)C(O)C(O)C1OC1OC(CO)C(O)C(O)C1OC1OC(C)C(OC(=O)CC(C)C)C(O)C1O (configuration not stated)",
    "Test System": "MALME-3M melanoma",
    "TGI": "> 35 µM"
  },
  {
    "Molecule": "O=S(=O)(O)c1ccc2c(N=Nc3ccc(N=Nc4ccccc4)cc3)c(O)c(S(=O)(=O)O)cc2c1",
    "Test System": "MALME-3M melanoma",
    "TGI": "> 100 µM"
  },
  {
    "Molecule": "CCOC(=O)C(NO)C(Sc1ccccc1)c1ccc(OC)cc1 (configuration not stated)",
    "Test System": "MALME-3M melanoma",
    "TGI": "> 100 µM"
  }
]

Read the next record carefully.
### Prompt Dear colleague, please send me the reported TGI for C[C@@H]1O[C@]2(O)[C@@H]3CCCN3S(=O)(=O)CCN2C1=O when you can.
### Response > 100 µM

---

- Tested on: HS 578T breast
- Measurement Protocol: NCI tumour cell line growth inhibition, 48 h
Listed here are compounds together with their documented GI50.

[
  {
    "Compound": "CCOC(=O)c1c(NC(=O)c2ccccc2)sc2c3c(ccc12)OCN(C)C3",
    "Test System": "HS 578T breast",
    "GI50": "1.9 µM"
  }
]

Read the next record carefully.
### Prompt Dear colleague, please send me the reported GI50 for CC(c1ccccc1)[C@@H](C(=O)Nc1ccc(I)cc1F)N1C(=O)N[C@H](c2ccc(OC[C@H](O)CO)cc2)C1=O (stereo not given in full) when you can.
### Response 16.3 µM

---

Listed here are molecules together with their documented GI50.
- Test system: KM12 colon
- Measurement Protocol: NCI tumour cell line growth inhibition, 48 h

Example entries and their recorded answers appear below.
[
  {
    "Molecule": "CCCCCC[C@@H](C)Nc1nc2ccccc2c2occc12",
    "Measured Value": "14 µM"
  },
  {
    "Molecule": "CCN(CC)CCN1C(=O)C2C3C(=O)CC(C)(CC3C)C2C1=O (stereo not drawn)",
    "Measured Value": "> 100 µM"
  },
  {
    "Molecule": "Cc1ccc(NC(=O)Nc2c(Cl)cccc2Cl)cn1",
    "Measured Value": "4.37 µM"
  },
  {
    "Molecule": "Cc1ccc(/C=C/c2c(C(=O)/C=C/c3ccc(Cl)cc3)c(C)nc3ccccc23)cc1",
    "Measured Value": "1.87 µM"
  },
  {
    "Molecule": "C=C1C(=O)O[C@H]2[C@H]1CC/C(Cn1cc(-c3cccc(Cl)c3)nn1)=C\\CC[C@@]1(C)O[C@@H]21",
    "Measured Value": "1.78 µM"
  },
  {
    "Molecule": "COc1ccc(Cn2cc3c(c2)-c2oncc2CC3)cc1OC",
    "Measured Value": "0.18 µM"
  }
]

### Prompt Dear colleague, please send me the reported GI50 for CCCCCCCCCC(CCCC(O)CC(=O)O)OC1OC(COC2OC(C)C(OC(C)=O)C(O)C2O)C(O)C(O)C1OC1OC(CO)C(O)C(O)C1OC1OC(C)C(OC(=O)CC(C)C)C(O)C1O (stereo not drawn) when you can.
### Response > 35 µM

### Prompt Dear colleague, please send me the reported GI50 for Cc1ccc(Cl)cc1NC(=O)c1cc2ccccc2cc1O when you can.
### Response 0.396 µM

### Prompt Dear colleague, please send me the reported GI50 for Cc1ccc(-c2nc(N3CCNCC3)c3oc(-c4ccccc4)nc3n2)cc1 when you can.
### Response 1.85 µM

### Prompt Dear colleague, please send me the reported GI50 for C/C(=N/O)c1ccc2c(c1)/C(=N/O)c1ccccc1-2 when you can.
### Response 18.1 µM

### Prompt Dear colleague, please send me the reported GI50 for Cc1c(-c2ccc(O)cc2)oc(=O)c2ccc(O)cc12 when you can.
### Response 60.9 µM

### Prompt Dear colleague, please send me the reported GI50 for COc1cc(/C=C/C(=O)N2CCC=CC2=O)cc(OC)c1OC when you can.
### Response 3.18 µM

### Prompt Dear colleague, please send me the reported GI50 for O=C(COc1ccc(OCC(=O)N2C(=O)CN(c3ccccc3)C2=S)cc1)N1C(=O)CN(c2ccccc2)C1=S when you can.
### Response > 25 µM

### Prompt Dear colleague, please send me the reported GI50 for CCOC(=O)/C(C#N)=C1\SS/C(=C(/C#N)C(=O)OCC)S1 when you can.
### Response 20.1 µM

From: PubChem BioAssay (NCI)
